test system: HT29 colon; assay: NCI-60 one-dose screen, 48 h; conditions: 10 µM unless noted
About 83,000 compounds went through this panel and 20% of them were active in at least one assay; those are over-represented in the sample as a whole. Calls of active or inactive are those of the source. Rule for the calls: active = growth percent below 10; inactive = the rest.
Classes used: active, inactive

{"Compound": "CCCCCCCCCCCCCCCC(=O)OCC1OC(n2cnc3c(=S)nc(N)[nH]c32)C(OC(=O)CCCCCCCCCCCCCCC)C1OC(=O)CCCCCCCCCCCCCCC (centres undefined)", "Assigned Class": "inactive"}
{"Compound": "COc1ccc(C2CC(=O)Nc3c2c(C)nn3-c2nc3ccccc3[nH]2)cc1 (centres undefined)", "Assigned Class": "inactive"}
{"Compound": "CNc1nc(C)c(-c2nc(Nc3cccc(S(N)(=O)=O)c3)ncc2F)s1", "Assigned Class": "active"}
{"Compound": "O=C(O)c1cccc2c1-c1ccccc1C2=O", "Assigned Class": "inactive"}
{"Compound": "COc1ccc(-n2cc(-c3ccccc3)c3c(SCC(=O)N/N=C/c4ccc([N+](=O)[O-])cc4)ncnc32)cc1", "Assigned Class": "inactive"}
{"Compound": "O=C1c2cc3c(cc2-c2c1c1cc(F)c(F)cc1c(=O)n2C[C@H](O)CO)OCO3", "Assigned Class": "active"}
{"Compound": "NC(N)=Nc1ccc(S(=O)(=O)O)cc1", "Assigned Class": "inactive"}
{"Compound": "C=C(CN1CCN(c2cccc(C(F)(F)F)n2)CC1)c1ccc(C(=O)Nc2ccccc2N)cc1", "Assigned Class": "active"}
{"Compound": "CCOC(=O)CC(=O)c1c(C)cc(C)cc1C", "Assigned Class": "inactive"}
{"Compound": "C/C(=C(/c1ccc(O)cc1)c1ccc(OCCN(C)C)cc1)c1ccccc1", "Assigned Class": "inactive"}
{"Compound": "O=C(C[C@@H](C(=O)NCc1cccc(C(F)(F)F)c1)N1C(=O)[C@@H](N2C(=O)OC[C@@H]2c2ccccc2)[C@H]1/C=C/c1ccccc1)NC1CCN(Cc2ccccc2)CC1", "Assigned Class": "active"}
{"Compound": "COCCOc1ccc(-c2nc3ccc(-c4nc5ccc(N6CCN(C)CC6)cc5[nH]4)cc3[nH]2)cc1", "Assigned Class": "active"}
{"Compound": "CCCCN(CCCC)CCC(C)(O)c1cc2ccccc2c2ccccc12 (centres undefined)", "Assigned Class": "inactive"}
{"Compound": "CC(=O)OCC1OC(OC2=C(CC=C(Cl)Cl)C(=O)c3ccccc3C2=O)C(OC(C)=O)C(OC(C)=O)C1OC(C)=O (centres undefined)", "Assigned Class": "inactive"}
{"Compound": "COc1ccc(-c2cc(/C=C3\\C(=O)Nc4ccc(Cl)cc43)[nH]n2)cc1", "Assigned Class": "inactive"}
{"Compound": "COc1cc(/C=C2\\CN(C(=O)CCN3CCC(=NO)CC3)C/C(=C\\c3cc(OC)c(OC)c(OC)c3)C2=O)cc(OC)c1OC", "Assigned Class": "active"}
{"Compound": "COc1ccc2c(c1)C(=O)/C(=C/c1cccc(OCC(=O)Nc3nc4c(s3)CCCC4)c1)O2", "Assigned Class": "active"}
{"Compound": "C=C1CCC2C3(C)COC(c4ccc(SC)cc4)OC3CCC2(C)C1C/C=C1/C(=O)OCC1O (centres undefined)", "Assigned Class": "inactive"}
{"Compound": "Cn1cc(-c2csc(-c3cn(C)c4ncccc34)n2)c2ccccc21", "Assigned Class": "active"}
